Assay: reduction of polyQ htt aggregates in cells – imaging, exon1htt(103Q)mCFP cells, high-content imaging, primary screen (AID 483);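 further: compound exposure lasted 3 days before fixation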
Conditions: exon1htt(103Q)mCFP cell line, aggregate imaging, at 2 µM; hits give high values
quantity: inhibition of aggregation (%)

1. CCOC(=O)C1=C(CN2CCOCC2)NC(=O)NC1c1cc(C)ccc1C (stereo not given) = -1.1
2. CC1(C)CC(=O)C2=C(C1)N(Cc1ccco1)C(=O)C2(NC(=O)C1CCCCC1)C(F)(F)F (stereo not given) = 9.8
3. Cc1ccc2[nH]c(=O)c(CN(CCCO)S(=O)(=O)c3c(C)ccc4nsnc34)cc2c1 = -11.4
4. Cc1cc(C)cc(N2CCCn3c2nc2c3c(=O)n(CCN3CCOCC3)c(=O)n2C)c1 = 0.7
5. CCCC1O[C@@H]2C[C@H]3[C@@H]4CCC5=CC(=O)C=C[C@]5(C)[C@H]4[C@@H](O)C[C@]3(C)[C@]2(C(=O)CO)O1 (stereo not given in full) = -17.2
6. CN(C)C(=O)Oc1ccc[n+](C)c1 = -10
7. OCCOCCN1CCN(C(c2ccccc2)c2ccc(Cl)cc2)CC1 (stereo not given) = 2.8
8. Cn1cnnc1SCC(=O)Nc1sc2c(c1C#N)CCCCC2 = 2.6
9. CCOc1cccc(Oc2ccc(C(F)(F)F)cn2)c1 = -17.4
10. CCn1c(=O)n(CC(=O)NCc2ccccc2OC)c(=O)c2ccccc21 = -16.5
11. O=C(COC(=O)c1ccc(NS(=O)(=O)c2ccc3c(c2)OCCO3)cc1)NCC1CCCO1 (stereo not given) = 11.2
12. COc1ccc(-c2nn3c(-c4ccncc4)nnc3s2)cc1OC = -7.4
13. Cc1ccc2c(c1C)NC(C)CC2C (stereo not given) = 5.9
14. CC(NC(=O)c1ccc(F)cc1)C(c1cccs1)N1CCN(C)CC1 (stereo not given) = -8.9
15. CCc1nnc(NC(=O)CSc2nnc(Cc3ccccc3)n2-c2ccc(OC)cc2)s1 = 0.3
16. COc1cc(OC)c(C(=O)Nc2ccc(N(C)C)cc2)cc1OC = 7.1
17. COc1ccc(NC(=O)Cn2nnc(-c3ccccc3N)n2)cc1OC = 19.9
18. COc1ccc(CCNS(=O)(=O)c2ccc3c(c2)OCCO3)cc1 = 2.3
19. O=C(NCC1COCCO1)C1CCN(S(=O)(=O)c2ccccc2)CC1 (stereo not given) = -7.6
20. Cc1ccccc1OCCN1C(=O)NC2(CCc3ccccc32)C1=O (stereo not given) = 8.4
21. Cc1ccc(NC(=O)C2CCCNC2=O)nc1 (stereo not given) = 5.8
22. Cc1c(C(=O)O)oc2ccc(S(=O)(=O)NCc3ccccc3)cc12 = 21.7
23. Cc1csc(NC(=O)c2sc3nc(-c4cccs4)ccc3c2N)n1 = 30.2
24. Cc1ccc(S(=O)(=O)NCCc2ccncc2)cc1 = 6.8
25. N=c1sc2ccccc2n1-c1ccccc1 = 14.5
26. COC(=O)c1oc2ccc(OC)cc2c1N = 18.1
27. CCC(=O)O[C@]1(C(=O)CCl)[C@@H](C)C[C@H]2[C@@H]3CCC4=CC(=O)C=C[C@]4(C)[C@@]3(F)[C@@H](O)C[C@@]21C = -20.8
28. CCOC(=O)N1CCC(NC(=O)c2ccc(OC)c(CN3CC(=O)N4CCCC4C3=O)c2)CC1 (stereo not given) = 2.9
29. CC1(C)Cc2noc(N)c2C(C)(C)N1OC(=O)c1cccs1 = 5.5
30. CN(C)CCC(c1ccc(Br)cc1)c1ccccn1 (stereo not given) = -6
31. O=C(NC1CC2CCC1C2)C1COc2ccccc2O1 (stereo not given) = 1.9
32. O=C(c1cc2ccccc2oc1=O)N1CCSC1c1ccco1 (stereo not given) = 3.2
33. CCOc1ccc(-n2c(=O)cc(N3CCN(c4ccccc4)CC3)[nH]c2=O)cc1 = -3.5
34. COC(=O)c1c(C(=O)OC)n(CCCN)c2ccc(C)cc12 = 1.8
35. O=C1CC(c2ccc(Cl)cc2)n2nc(N3C(=O)c4ccccc4C3=O)nc2N1 (stereo not given) = -2.1
36. NS(=O)(=O)c1cc2c(cc1Cl)NCNS2(=O)=O = -4.8
37. Cc1cc(C)c2cc(CN(CC3CCCO3)C(=O)NC3CCCCC3)c(=O)[nH]c2c1 (stereo not given) = -17.9
38. COc1ccc(-c2cn3cc(C)ccc3n2)cc1OC = -3.3
39. Cn1nc(-c2ccc(C(=O)NCC3CCCO3)cc2)c2ccccc2c1=O (stereo not given) = 37.8
40. CCN1C(=O)NC(c2cc(Br)ccc2OC)C(C(=O)OC)=C1C (stereo not given) = 2.4
41. CN(C(=O)c1ccno1)c1nnc(-c2cnccn2)s1 = 10.8
42. CCCCn1c(CN2CCN(CCO)CC2)nc2ccccc21 = -17.9
43. O=C(Nc1ccc2nn(-c3ccccc3)nc2c1)c1ccc(Br)o1 = 9.1
44. CC1=C(C#N)C(c2ccc3ncccc3c2)C(C#N)=C(C)N1 = -43.5
45. Cc1ccc(NC(=O)N2CCC(c3nc4c(nnn4Cc4cccc(Cl)c4)c(=O)[nH]3)CC2)cc1 = -2.1

====

inhibition: recorded values
Assay: TLR3 IRF3 reporter activation blockers – cell-based, poly I:C stimulus, luciferase, 10K MLSCN set, primary screen (AID 602277)
Details: HEK293-TLR3 RL24 IRF3 luciferase reporter, at 10 µM, hits give high values
quantity: inhibition (%)

1) CCOc1ccccc1Nc1nc2ccccc2[nH]1 = -39.8
2) CCOC(=O)c1ccccc1NC(=O)CSc1nc2c(c(=O)n(C)c(=O)n2C)n1C = 25
3) CCC(C)c1ccc(NC(=O)C2CC2)cc1 (stereo not drawn) = -80.1
4) COc1ccc(CNc2nc3nc(C)cc(C)n3n2)cc1OC = 12.9
5) Cc1cc(NC(=O)COC(=O)c2cccc(S(=O)(=O)N3CCOCC3)c2)no1 = 24.4
6) CCN1C(=O)NC(c2cc(Br)ccc2OC)C(C(=O)OC)=C1C (stereo not drawn) = 17.3
7) O=C(Nc1nccs1)c1ccc(Cl)c(S(=O)(=O)N2CCCCC2)c1 = 7.95
8) CCN(CCNC(=O)C1CCN(S(=O)(=O)CC)CC1)c1ccccc1 = 11.8
9) COc1ccc(CNC(=O)Cn2nc(C(F)(F)F)c3c2CCC3)cc1 = 19.7
10) Cc1nc(C)c(C(=O)C2=C(O)C(=O)N(CCN3CCOCC3)C2c2cccnc2)s1 (stereo not drawn) = 22.7
11) CC(C)=CCCC(C)NC(=O)NC1CCCCC1 (stereo not drawn) = -0.553
12) CN(CCCC(=O)Nc1ccncc1)S(=O)(=O)c1ccc(Cl)cc1 = -29.3
13) O=C(c1ccc(Cl)cc1)C1CCN(C(=O)NC2CCCCC2)CC1 = -12.4
14) COCCN1CN(S(=O)(=O)c2ccccc2)c2nc3ccccc3nc21 = 17.4
15) COCc1[nH]nc2c1C(C1C=CCCC1)C(C#N)=C(N)O2 (stereo not drawn) = 31.6
16) CCOC(=O)C(C)On1c(SC(C)C(=O)OCC)nc2ccccc2c1=O (stereo not drawn) = 20
17) Cc1[nH]n2c(=O)cc(Cc3ccccc3)nc2c1C#N = 22
18) COc1ccc(CC(=O)OCc2nnc(C3COc4ccccc4O3)o2)cc1OC (stereo not drawn) = 9.19
19) Cc1ccc(S(=O)(=O)NCCNC(=O)c2ccccc2)cc1 = 10.4
20) Cc1ccc(S(=O)(=O)N[C@@H](C)C(=O)N2CCC(C(=O)N3CCC[C@H]3C(=O)O)CC2)cc1 = 13
21) CCSc1nnc(NC(=O)c2nn(C(C)C)c(=O)c3ccccc23)s1 = 11.7
22) Cc1ccc(CCNC(=O)C2CCN(S(=O)(=O)c3cccc4nsnc34)CC2)cc1 = -16.3
23) O=C1CSC(c2cccc(F)c2)N1c1ccccc1F (stereo not drawn) = 18.1

====

Test: blockers of RIG-like receptor reporter activation – cell-based, Sendai virus stimulus, luciferase, 10K MLSCN set, TLR/RLR signaling modifier project, primary screen (AID 602276);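 further: firefly luciferase from ISG56 promoter only with Renilla not read in this screen; 0% = Sendai virus plus DMSO and 100% = medium plus DMSO without virus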
Conditions: HEK293 RL24 IRF3 luciferase reporter, at 10 µM, hits give high values
Here, each record is paired with measured inhibition data.
quantity: inhibition (%)

1. Cc1cc(C)c2c(N)c(C(=O)N3CCN(c4ncccn4)CC3)sc2n1 = -3.01
2. O=C(C1CCN(S(=O)(=O)c2ccc(-n3cnnn3)cc2)CC1)N1CCN(c2ccccc2)CC1 = 18.7
3. O=C(O)c1cnn2c1NC(c1ccc(F)cc1)CC2C(F)(F)F (centres undefined) = 10.7
4. CCCn1c(NC(=O)C2COc3ccccc3O2)nc2ccccc21 (centres undefined) = 15.8
5. CCC(c1nnnn1CCOC)N(Cc1ccc(C)cc1)Cc1cc2cc(OC)ccc2[nH]c1=O (centres undefined) = 19
6. CCCC(O)(CCN(C)C)c1ccc(OC)cc1 (centres undefined) = 21.2
7. N#C/C(C(=O)N1CCOCC1)=C1/SC=C(c2ccccc2)N1c1ccccc1 = 12.4
8. CCOC(=O)CCC(=O)Nc1ccc(S(=O)(=O)N2CCCC2)cc1 = -1.78
9. O=C(c1ccc(NS(=O)(=O)c2cccs2)cc1)N1CCCCC1 = 0.00146
10. CCOC(=O)c1cc2sccc2n1CC(=O)Nc1ccc(OC)cc1OC = 19
11. O=C(COc1ccc(Cl)cc1)Nc1ncccn1 = 14.4
12. CCOC(=O)c1sc(C)c2c(=O)n(CC)nnc12 = 6.72
13. Cc1ccc(NS(=O)(=O)c2cn(C)cn2)cc1 = 15.2
14. CC(=O)N[C@@H](CS)C(=O)O = 11.9
15. O=C(Nc1ccc(Cl)cc1)C1CC=CCC1C(=O)OCC(F)(F)C(F)F (centres undefined) = 11.2
16. Cc1ccccc1NC(=O)C1Cc2ccccc2C(=O)O1 (centres undefined) = -9.01
17. CC(=O)c1cc(-c2ccccc2)n(CC(=O)N2CCC(N3CCCCC3)CC2)c1C = 14.8
18. O=C(NC1CCCC1)c1cc(-c2cccs2)on1 = -40.4
19. O=S(=O)(NCC(O)COCc1ccco1)c1cccs1 (centres undefined) = 2.99
20. CN1CCN(CC(=O)Nc2ccc(Cl)cc2Cl)CC1 = 11
21. CCCCc1cc(=O)oc2cc(C)cc(OC(C)C(=O)O)c12 (centres undefined) = 5.95
22. Cc1ccc2nsnc2c1S(=O)(=O)N1CCN(Cc2ccc3c(c2)OCO3)CC1 = 12.5
23. CCn1c(=O)n(CC(=O)N(C)Cc2ccccc2)c(=O)c2ccccc21 = 11.1
24. O=C(COc1ccccc1Cl)N1CCCC1 = -16

Measured values drawn from PubChem BioAssay for this set.
